B1: FCHO1 (parent)
chain: FTSSPSPFSSSSPENVEDSGLDSP

- Variants of: B1
- ASSAY_DETAILS: protein stability index of a GFP-peptide fusion (GPS, HEK-293T) (PSI 1-6); higher = more stable;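 note: lentivirally expressed fusions sorted by FACS into six bins by GFP to DsRed ratio, PSI derived from sequencing read proportions per bin multiplied by bin number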
- CONDITION: c terminus: a fixed tail appended
Class Yes: protein stability index at least 2. Class No: protein stability index below 2.

>>> qualitative_label("FTSSPSPFSSYSPENVEDSGLDSP [S11Y]")
"Yes"
>>> qualitative_label("FTLSPSPFSSSSPENVEDSGLDSP [S3L]")
"Yes"
>>> qualitative_label("FTSSPSPFSSSSPEYVEDSGLDSP [N15Y]")
"No"
>>> qualitative_label("FTSSPSPFSSSSPENVEDSGLDSY [P24Y]")
"Yes"
>>> qualitative_label("FTSSPSPFSSSSPENVEDSGCDSP [L21C]")
"Yes"
>>> qualitative_label("FTSSPSPFSSSSPENVEDSGLGSP [D22G]")
"No"
>>> qualitative_label("FDSSPSPFSSSSPENVEDSGLDSP [T2D]")
"Yes"
>>> qualitative_label("FTSSPSPFSSSSPENVEDSGLPSP [D22P]")
"Yes"
>>> qualitative_label("FTSSPSPFSSSSPENVEDSGRDSP [L21R]")
"Yes"
>>> qualitative_label("FTSSPSDFSSSSPENVEDSGLDSP [P7D]")
"Yes"
>>> qualitative_label("FTSSPSPFSSSVPENVEDSGLDSP [S12V]")
"Yes"
>>> qualitative_label("FTSSPSPFSSSSPQNVEDSGLDSP [E14Q]")
"Yes"
>>> qualitative_label("FTSSPSPFSSSSPENVEDSGLQSP [D22Q]")
"No"
>>> qualitative_label("FTSSPSPFSSSSPENVEDSGLDTP [S23T]")
"No"
>>> qualitative_label("FTSSPSPFSSSSPENVEDSGLDSM [P24M]")
"Yes"
>>> qualitative_label("FTSSPSPFSSSSPWNVEDSGLDSP [E14W]")
"Yes"
>>> qualitative_label("FTSSPSPFSSSNPENVEDSGLDSP [S12N]")
"Yes"
>>> qualitative_label("FTSSPSPFSSSSPENVIDSGLDSP [E17I]")
"No"
>>> qualitative_label("FTSSPSPFSSSHPENVEDSGLDSP [S12H]")
"Yes"
